Target: T1, IL-18Rα/β heterodimer (Fc fused human IL-18Rα mixed and pre-incubated with Fc fused human IL-18Rβ) (human, UniProt Q13478 19-329; O95256 20-356, limits assumed)
T1 construct: 6 µg/mL of each receptor mixed and pre-incubated 30 min before capture on anti-human IgG; also called alpha/beta heterodimer IL-18 receptor; not shown: Fc part
T1 sequence (looked up) 1: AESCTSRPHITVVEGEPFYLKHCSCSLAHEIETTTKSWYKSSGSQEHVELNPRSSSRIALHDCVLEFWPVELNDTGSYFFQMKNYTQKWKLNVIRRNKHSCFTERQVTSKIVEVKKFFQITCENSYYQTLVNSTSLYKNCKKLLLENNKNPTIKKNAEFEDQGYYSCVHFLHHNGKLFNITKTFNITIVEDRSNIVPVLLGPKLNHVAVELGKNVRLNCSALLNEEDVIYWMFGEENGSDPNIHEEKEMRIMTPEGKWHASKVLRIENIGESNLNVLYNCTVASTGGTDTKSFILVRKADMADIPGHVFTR
T1 sequence (looked up) 2: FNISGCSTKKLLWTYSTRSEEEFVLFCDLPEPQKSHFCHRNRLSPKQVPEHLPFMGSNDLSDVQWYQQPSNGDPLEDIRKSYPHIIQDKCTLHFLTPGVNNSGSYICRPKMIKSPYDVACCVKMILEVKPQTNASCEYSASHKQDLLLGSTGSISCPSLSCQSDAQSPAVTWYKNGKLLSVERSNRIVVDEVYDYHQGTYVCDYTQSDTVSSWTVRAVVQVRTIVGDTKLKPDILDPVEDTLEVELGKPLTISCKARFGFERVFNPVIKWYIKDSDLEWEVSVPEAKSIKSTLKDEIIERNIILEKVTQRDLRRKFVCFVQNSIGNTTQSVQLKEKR
Test: SPR, Fc-IL-18Rα/Fc-IL-18Rβ mix captured, heterogeneous ligand model

BINDER | koff (s⁻¹)
Modified IL-18 polypeptide of SEQ ID NO: 71 (E6K, C38S, K53A) (ligand) YFGKLKSKLSVIRNLNDQVLFIDQGNRPLFEDMTDSDSRDNAPRTIFIISMYADSQPRGMAVTISVKCEKISTLSCENKIISFKEMNPPDNIKDTKSDIIFFQRSVPGHDNKMQFESSSYEGYFLACEKERDLFKLILKKEDELGDRSIMFTVQNED | 0.0008
Modified IL-18 polypeptide of SEQ ID NO: 16 (C38S, C68S, C76S, C127S, K70C) (ligand) YFGKLESKLSVIRNLNDQVLFIDQGNRPLFEDMTDSDSRDNAPRTIFIISMYKDSQPRGMAVTISVKSECISTLSSENKIISFKEMNPPDNIKDTKSDIIFFQRSVPGHDNKMQFESSSYEGYFLASEKERDLFKLILKKEDELGDRSIMFTVQNED | 0.0317
Modified IL-18 polypeptide of SEQ ID NO: 22 (E06K, K53A, C38S, C68S, C76S, C127S, K70C) (ligand) YFGKLKSKLSVIRNLNDQVLFIDQGNRPLFEDMTDSDSRDNAPRTIFIISMYADSQPRGMAVTISVKSECISTLSSENKIISFKEMNPPDNIKDTKSDIIFFQRSVPGHDNKMQFESSSYEGYFLASEKERDLFKLILKKEDELGDRSIMFTVQNED | 0.000761
Modified IL-18 polypeptide of SEQ ID NO: 2 (E06K, K53A, S55A) (ligand) YFGKLKSKLSVIRNLNDQVLFIDQGNRPLFEDMTDSDCRDNAPRTIFIISMYADAQPRGMAVTISVKCEKISTLSCENKIISFKEMNPPDNIKDTKSDIIFFQRSVPGHDNKMQFESSSYEGYFLACEKERDLFKLILKKEDELGDRSIMFTVQNED | 0.0734
Modified IL-18 polypeptide of SEQ ID NO: 70 (E6K, K53A, C38S, C76S, C127S) (ligand) YFGKLKSKLSVIRNLNDQVLFIDQGNRPLFEDMTDSDSRDNAPRTIFIISMYADSQPRGMAVTISVKCEKISTLSSENKIISFKEMNPPDNIKDTKSDIIFFQRSVPGHDNKMQFESSSYEGYFLASEKERDLFKLILKKEDELGDRSIMFTVQNED | 0.0006
Modified IL-18 polypeptide of SEQ ID NO: 71 with a 30 kDa PEG attached at residue C68 (E6K, C38S, K53A, C68-30kDPEG) (ligand, 30 kDa PEG on Cys 68 (30 kDa DBCO-polyethylene glycol clicked to a bromoacetamido-PEG5-azide linker on the cysteine), also called 71 + PEG) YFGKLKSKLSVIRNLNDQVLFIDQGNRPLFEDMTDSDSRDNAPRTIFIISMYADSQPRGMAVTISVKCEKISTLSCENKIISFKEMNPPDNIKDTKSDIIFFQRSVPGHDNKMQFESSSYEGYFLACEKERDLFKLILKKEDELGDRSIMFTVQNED | 0.0008
Modified IL-18 polypeptide of SEQ ID NO: 15 (C38S, C68S, C76S, C127S) (ligand) YFGKLESKLSVIRNLNDQVLFIDQGNRPLFEDMTDSDSRDNAPRTIFIISMYKDSQPRGMAVTISVKSEKISTLSSENKIISFKEMNPPDNIKDTKSDIIFFQRSVPGHDNKMQFESSSYEGYFLASEKERDLFKLILKKEDELGDRSIMFTVQNED | 0.022
Modified IL-18 polypeptide of SEQ ID NO: 18 (E06K, K53A, T63A) (ligand) YFGKLKSKLSVIRNLNDQVLFIDQGNRPLFEDMTDSDCRDNAPRTIFIISMYADSQPRGMAVAISVKCEKISTLSCENKIISFKEMNPPDNIKDTKSDIIFFQRSVPGHDNKMQFESSSYEGYFLACEKERDLFKLILKKEDELGDRSIMFTVQNED | 0.000955

Source: patent US20220056091A1
